SYSTEM NAME: ORL1 receptor (Homo sapiens, UniProt P41146)
Construct: expressed in transfected cells; host or cells: CHO (recombinant CHO-ORL1 cells), membranes
Sequence (P41146 whole entry): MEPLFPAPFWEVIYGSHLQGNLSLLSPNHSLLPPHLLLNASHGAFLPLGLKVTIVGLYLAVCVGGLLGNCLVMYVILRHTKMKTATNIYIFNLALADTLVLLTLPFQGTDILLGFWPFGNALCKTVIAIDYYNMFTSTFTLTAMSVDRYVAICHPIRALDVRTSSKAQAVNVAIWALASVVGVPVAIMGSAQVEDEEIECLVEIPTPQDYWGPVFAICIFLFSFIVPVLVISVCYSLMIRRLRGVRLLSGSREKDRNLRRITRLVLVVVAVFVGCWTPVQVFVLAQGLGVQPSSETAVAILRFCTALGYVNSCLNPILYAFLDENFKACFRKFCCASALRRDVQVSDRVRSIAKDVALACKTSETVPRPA
TEST PROTOCOL: ORL1 receptor binding assay with 3H-nociceptin/orphanin FQ (WGA-SPA beads)
CONDITION DESCRIPTION: c=1 μM test substance; 0.5 nM 3H-nociceptin/orphanin FQ; membranes of recombinant CHO-ORL1 cells
Quick reference for inhibition at 1 µM among some molecules
MEASURE NAME: inhibition at 1 µM (%)

| MOLECULE | NUMERIC VALUE |
| --- | --- |
| CN(C)c1ccc2cc(C(=O)N3CCCC(C(=O)N4CCC(c5ccccc5)(N(C)C)CC4)C3)[nH]c2c1 (centres unmarked) [Example 136] | 24 |
| CN(C)C1(c2ccccc2)CCN(C(=O)C2CCCN(Cc3ccc4[nH]ccc4c3)C2)CC1 (centres unmarked) [Example 148] | 17 |
| CN(CCN1CCC(c2ccccc2)(N2CCCC2)CC1)C(=O)c1cc2cc(F)ccc2[nH]1 [Example 51] | 26 |
| CC(C)C(C(=O)N1CCC(c2ccccc2)(N(C)C)CC1)N(C)C(=O)CCc1cn(C)c2ccccc12 (centres unmarked) [Example 132] | 34 |
| CN(C)C1(c2ccccc2)CCN(C(=O)C2CCCN(C(=O)CCc3c[nH]c4ccccc34)C2)CC1 (centres unmarked) [Example 123] | 43 |
| CCCCC1(N(C)C)CCN(CCN(C)C(=O)C2CCCc3c2[nH]c2ccc(Cl)cc32)CC1 (centres unmarked) [Example 43] | 21 |
| CN(C)C1(c2ccccc2)CCN(C(=O)CCNCc2ccc3[nH]ccc3c2)CC1 [Example 142] | 40 |
| COc1ccc2[nH]c(C(=O)NCCC(=O)N3CCC(c4ccccc4)(N(C)C)CC3)cc2c1 [Example 129] | 37 |
